Measured values drawn from the RepoRT retention time repository (doi:10.1016/j.scitotenv.2015.09.145) for this set.

# assay.protocol: Waters Atlantis T3, 100 × 2.1 mm, 3 µm, 0.1 mL/min, estimated dead time 2.2 min; A: water + 0.01% formic acid; B: methanol; gradient (min/%B) 0/2 3/2 20/100 29/100
# run.parameters: stereoisomer not certain
# Lookup of reported LC retention time keyed by entry
Answer in min, number only, no unit symbol.

Some compounds with recorded LC retention time:
**Q:** Please indicate LC retention time recorded for OCCOCCN1CCN(C2=Nc3ccccc3Sc3ccccc32)CC1
**A:** 17.6

**Q:** Answer with reported LC retention time of CCC1(c2ccccc2)C(=O)NCNC1=O
**A:** 17

**Q:** Tell me measured LC retention time for CCC(=O)C(CC(C)N(C)C)(c1ccccc1)c1ccccc1 (configuration not stated) please.
**A:** 18.5

More entries:
**Q:** State its LC retention time for this compound: CC(C)CC(CN)CC(=O)O (configuration not stated)
**A:** 13.2

**Q:** Give me measured LC retention time, please, for this compound: Nc1nc(N)c2nc(-c3ccccc3)c(N)nc2n1
**A:** 14.7

**Q:** Please report LC retention time for the following compound: COc1cc(NS(=O)(=O)c2ccc(N)cc2)ncn1
**A:** 15.2

**Q:** Entry Nc1ccc(S(=O)(=O)Nc2ncccn2)cc1 needs its LC retention time filled in; supply it.
**A:** 13.2

**Q:** Read the entry COc1ccc2c3c1OC1C(=O)CCC4(O)C(C2)N(C)CCC314 (configuration not stated) and write its reported LC retention time.
**A:** 12.6
